system: downy bromegrass (Bromus tectorum); experiment: Test B pre-/postemergence plant response; type: in vivo; conditions: Postemergence, 31 g ai/ha; 0 to 100 scale (0 no effect, 100 complete control)
VALUE KIND: Plant response rating, Bromegrass, Downy

# COMPOUND, TEST VALUE
rows = [
    ("O=C(C1=C(O)C2CCC(C2)C1=O)c1cnc(-c2ccsc2)n(CC2CCCO2)c1=O (stereo not shown)", 5),
    ("COc1ccc(-n2c(-c3ccccc3)ncc(C(=O)C3=C(O)CCCC3=O)c2=O)cc1OC", 5),
    ("CCCCn1c(-c2cccc(F)c2)ncc(C(=O)C2=C(O)C3CCC(C3)C2=O)c1=O (stereo not shown)", 30),
]

Supply measured Plant response rating, Bromegrass, Downy of CCCn1c(-c2cccc(C(F)(F)F)c2)ncc(C(=O)C2=C(O)CCCC2=O)c1=O in your reply. 5
